Hey, just so you know, these numbers are from ChEMBL document CHEMBL3739373.

Test description: Selectivity index, ratio of GI50 for human A549 cells to MIC for dormant phase Mycobacterium tuberculosis H37Ra ATCC 25177
Type: toxicity, cell-based
Measurement parameters: read-out: Selectivity Index
Measurement label: selectivity ratio

Example entries begin here.
>  <Structure smiles>
Clc1ccc(Cn2cc(COc3c(Cl)cc(Cl)cc3Cl)nn2)cc1

>  <Result>
> 12.9

$$$$
>  <Structure smiles>
Clc1ccc(Cn2cc(COc3ccc(Cl)cc3)nn2)cc1

>  <Result>
> 12.2

$$$$
>  <Structure smiles>
Clc1cc(Cl)c(OCc2cn(Cc3ccc(Br)cc3)nn2)c(Cl)c1

>  <Result>
> 3.6

$$$$
>  <Structure smiles>
CC(=O)O[C@H]1C(=O)[C@@]2(C)[C@H]([C@H](OC(=O)c3ccccc3)[C@]3(O)C[C@H](OC(=O)[C@H](O)[C@@H](NC(=O)c4ccccc4)c4ccccc4)C(C)=C1C3(C)C)[C@]1(OC(C)=O)CO[C@@H]1C[C@@H]2O

>  <Result>
> 2330

$$$$
>  <Structure smiles>
Brc1ccc(Cn2cc(COc3ccccc3)nn2)cc1

>  <Result>
> 3.5

$$$$
>  <Structure smiles>
Clc1ccc(OCc2cn(Cc3ccc(Br)cc3)nn2)cc1

>  <Result>
> 17.3

$$$$
>  <Structure smiles>
Cc1ccc(OCc2cn(Cc3ccc([N+](=O)[O-])cc3)nn2)cc1

>  <Result>
> 3.3

$$$$
>  <Structure smiles>
Cc1cc(OCc2cn(Cc3ccc(Cl)cc3)nn2)ccc1Cl

>  <Result>
> 3.7

$$$$

Next:
Sample O=[N+]([O-])c1cccc(Cn2cc(COc3ccc(Cl)cc3)nn2)c1 ; selectivity ratio observed: > 3.4
